These measurements were taken from patent US11999727B2.

- assayed.target: PRMT5 (Homo sapiens)
- Construct: purchased Viva (custom protein)
- Sequence (O14744 whole entry): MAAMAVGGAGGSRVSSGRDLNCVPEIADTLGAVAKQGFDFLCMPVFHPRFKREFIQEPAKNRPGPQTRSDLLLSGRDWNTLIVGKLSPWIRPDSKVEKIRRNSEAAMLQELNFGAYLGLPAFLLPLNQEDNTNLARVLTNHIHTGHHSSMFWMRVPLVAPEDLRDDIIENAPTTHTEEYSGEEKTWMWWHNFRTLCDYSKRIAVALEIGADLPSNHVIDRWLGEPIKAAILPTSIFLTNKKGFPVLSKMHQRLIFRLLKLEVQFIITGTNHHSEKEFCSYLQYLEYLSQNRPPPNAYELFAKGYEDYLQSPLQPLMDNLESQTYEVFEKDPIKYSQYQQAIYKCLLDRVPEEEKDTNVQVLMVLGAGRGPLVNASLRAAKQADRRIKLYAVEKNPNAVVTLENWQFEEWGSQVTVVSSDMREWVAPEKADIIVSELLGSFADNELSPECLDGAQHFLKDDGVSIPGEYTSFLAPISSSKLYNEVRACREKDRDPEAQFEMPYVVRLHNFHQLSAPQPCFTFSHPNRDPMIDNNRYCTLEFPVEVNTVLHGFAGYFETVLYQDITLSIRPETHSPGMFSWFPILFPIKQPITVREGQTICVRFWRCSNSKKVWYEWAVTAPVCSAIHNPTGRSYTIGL
- Sequence (Q9BQA1 whole entry partner): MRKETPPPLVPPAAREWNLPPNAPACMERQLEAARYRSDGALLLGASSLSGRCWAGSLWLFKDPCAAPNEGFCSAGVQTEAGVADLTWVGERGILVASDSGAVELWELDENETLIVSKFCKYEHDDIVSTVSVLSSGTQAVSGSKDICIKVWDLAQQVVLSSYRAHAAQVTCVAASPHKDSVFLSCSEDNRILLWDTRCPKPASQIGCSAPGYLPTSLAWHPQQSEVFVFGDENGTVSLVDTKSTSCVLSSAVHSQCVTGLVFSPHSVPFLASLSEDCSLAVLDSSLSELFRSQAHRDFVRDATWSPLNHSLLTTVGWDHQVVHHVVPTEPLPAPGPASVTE
- test.name: PRMT5 biochemical IC50 assay with MTA as cofactor
- setup.conditions: PRMT5, MTA as cofactor; read-out: MTA IC50
pIC50: −log10 of the molar value.
Known pIC50 of a selection of compounds

Worked examples, 5 compounds total:
[[record]]
compound = "C[C@H]1CC[C@H](c2ccccc2)N(C(=O)C(=O)Nc2cncc(C(N)=O)c2)[C@H]1C (single isomer, unassigned)"
assayed_target = "PRMT5 (Homo sapiens)"
experimental_readout = "pIC50"
result = "> 7.30"

[[record]]
compound = "CCc1cc(NC(=O)C(=O)N2C[C@@H](C)CC[C@@H]2c2ccc3nn([C@@H]4CCN(C)C4)cc3c2)cnc1N (racemic)"
assayed_target = "PRMT5 (Homo sapiens)"
experimental_readout = "pIC50"
result = "> 7.30"

[[record]]
compound = "COc1ncc(NC(=O)C(=O)N2CCCCC2C2CCCCC2)cc1C(N)=O (single isomer, unassigned) [Compound 347]"
assayed_target = "PRMT5 (Homo sapiens)"
experimental_readout = "pIC50"
result = "> 7.30"

[[record]]
compound = "CCc1cc(NC(=O)C(=O)N2C[C@@H](C)CC[C@@H]2c2ccc3sc(-c4ccccn4)nc3c2)cnc1N"
assayed_target = "PRMT5 (Homo sapiens)"
experimental_readout = "pIC50"
result = "> 7.30"

[[record]]
compound = "COc1cc([C@H]2CC[C@H](C)CN2C(=O)C(=O)Nc2cnc(N)c(C)c2)ccn1 (single isomer, unassigned)"
assayed_target = "PRMT5 (Homo sapiens)"
experimental_readout = "pIC50"
result = "< 6.30"


Ask: Fill in the blank: the reported pIC50 of Cc1cncc(NC(=O)C(=O)N2CCCCC2c2cccc(N(C)C)c2)c1 (stereo not shown) is ____.
Result: 6.30 to 7.30

Ask: Looking for the measured pIC50 of CCc1cc(NC(=O)C(=O)N2C[C@@H](C)CC[C@@H]2c2ccc3c(c2)CNC3=O)cnc1N (single isomer, unassigned) , can you help?
Result: > 7.30
